# Assayed Target: recombinant, full-length HDAC-6 (Homo sapiens (Human), UniProt Q9UBN7)
# Sequence (Q9UBN7 whole entry): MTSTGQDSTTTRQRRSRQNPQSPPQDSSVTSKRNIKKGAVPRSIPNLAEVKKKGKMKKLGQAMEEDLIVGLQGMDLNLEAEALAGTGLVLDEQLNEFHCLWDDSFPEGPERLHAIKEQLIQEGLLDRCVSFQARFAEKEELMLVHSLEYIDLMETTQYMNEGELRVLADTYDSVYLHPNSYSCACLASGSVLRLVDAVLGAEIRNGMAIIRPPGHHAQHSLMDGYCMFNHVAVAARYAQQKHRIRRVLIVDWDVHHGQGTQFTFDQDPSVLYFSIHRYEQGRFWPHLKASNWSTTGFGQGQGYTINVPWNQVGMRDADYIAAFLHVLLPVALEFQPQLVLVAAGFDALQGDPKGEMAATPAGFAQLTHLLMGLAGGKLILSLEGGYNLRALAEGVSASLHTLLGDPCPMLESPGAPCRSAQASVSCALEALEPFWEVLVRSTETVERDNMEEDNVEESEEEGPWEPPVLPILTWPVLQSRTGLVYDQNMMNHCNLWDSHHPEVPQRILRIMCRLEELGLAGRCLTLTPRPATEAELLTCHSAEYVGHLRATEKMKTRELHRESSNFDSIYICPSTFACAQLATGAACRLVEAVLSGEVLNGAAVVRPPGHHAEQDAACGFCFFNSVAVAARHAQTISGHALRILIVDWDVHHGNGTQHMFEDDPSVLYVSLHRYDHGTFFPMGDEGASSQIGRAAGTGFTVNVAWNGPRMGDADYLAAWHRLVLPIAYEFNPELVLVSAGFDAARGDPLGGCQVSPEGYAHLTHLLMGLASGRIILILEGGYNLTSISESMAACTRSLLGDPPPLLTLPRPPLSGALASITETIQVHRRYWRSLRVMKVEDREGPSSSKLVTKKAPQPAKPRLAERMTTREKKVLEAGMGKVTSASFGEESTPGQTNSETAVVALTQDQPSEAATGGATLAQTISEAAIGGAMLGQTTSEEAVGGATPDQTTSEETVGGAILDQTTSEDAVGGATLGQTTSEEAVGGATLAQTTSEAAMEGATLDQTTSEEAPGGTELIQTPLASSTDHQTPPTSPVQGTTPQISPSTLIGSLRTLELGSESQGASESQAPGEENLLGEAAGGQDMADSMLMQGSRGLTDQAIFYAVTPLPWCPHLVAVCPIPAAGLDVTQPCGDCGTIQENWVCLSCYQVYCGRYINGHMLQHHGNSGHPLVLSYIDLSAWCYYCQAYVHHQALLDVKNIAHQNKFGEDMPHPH
# Test: HDAC-6 assay (fluorogenic Ac-peptide-AMC)
# Format: biochemical
# Particulars: method 2: HDAC-6 protein (BPS Biosciences)
pIC50: −log10 of the molar value.
Experimental Readout: pIC50

Consider the worked cases shown below.
- CC(=O)c1c(C)c2cnc(Nc3ccc(OCCN(C)c4ccc(C(=O)NO)cn4)cn3)nc2n(C2CCCC2)c1=O: 8.00 to 8.30
- CC(=O)c1c(C)c2cnc(Nc3ccc(OCCN(C)c4ncc(C(=O)NO)cn4)cn3)nc2n(C2CCCC2)c1=O: 7.30 to 8.00

Query :: Entry CC(=O)c1c(C)c2cnc(Nc3ccc(N(C)CCN(C)c4ccc(C(=O)NO)cn4)cn3)nc2n(C2CCCC2)c1=O has what pIC50?
Result :: 7.00 to 7.12

Query :: CC(=O)c1c(C)c2cnc(Nc3ccc(N(C)CCCCCCC(=O)NO)cn3)nc2n(C2CCCC2)c1=O ?
Result :: 7.30 to 8.00

----------
# Assayed Target: CDK4/CycD3 (Homo sapiens (Human))
# Sequence (P11802 whole entry, species assumed, one chain of several): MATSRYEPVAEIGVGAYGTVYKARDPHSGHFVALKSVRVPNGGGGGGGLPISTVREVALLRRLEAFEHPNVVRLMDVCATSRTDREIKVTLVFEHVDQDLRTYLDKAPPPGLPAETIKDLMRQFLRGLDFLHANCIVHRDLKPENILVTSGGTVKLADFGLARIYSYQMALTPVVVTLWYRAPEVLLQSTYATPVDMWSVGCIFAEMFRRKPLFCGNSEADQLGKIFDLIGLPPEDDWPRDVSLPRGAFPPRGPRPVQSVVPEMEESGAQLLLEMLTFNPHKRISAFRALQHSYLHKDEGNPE
# Test: CDK4 kinase assay (Mobility Shift Assay)
# Format: biochemical
# Particulars: method 2: CDK4/CycD3 10 nM, ATP Km 250 μM, 150 min, 28° C.
Known IC50 of a selection of molecules

Some molecules with recorded IC50:
* CC(=O)c1c(C)c2cnc(Nc3ccc(OCCN(C)c4ncc(C(=O)NO)cn4)cn3)nc2n(C2CCCC2)c1=O | 10 to 25 nM
* CC(=O)c1c(C)c2cnc(Nc3ccc(N(C)CCN(C)c4ccc(C(=O)NO)cc4)cn3)nc2n(C2CCCC2)c1=O | ≤ 10 nM
* CC(=O)c1c(C)c2cnc(Nc3ccc(OCCN(C)c4ccc(C(=O)NO)cn4)cn3)nc2n(C2CCCC2)c1=O | ≤ 10 nM
* CC(=O)c1c(C)c2cnc(Nc3ccc(N(C)CCN(C)c4ccc(C(=O)NO)nc4)cn3)nc2n(C2CCCC2)c1=O | ≤ 10 nM
* CC(=O)c1c(C)c2cnc(Nc3ccc(N(C)CCN(C)c4ccc(C(=O)NO)cn4)cn3)nc2n(C2CCCC2)c1=O | 10 to 25 nM

Query :: Bench note: what IC50 did CC(=O)c1c(C)c2cnc(Nc3ccc(N4CCC(C(=O)NO)CC4)cn3)nc2n(C2CCCC2)c1=O show?
Result :: ≤ 10 nM

Query :: Another: CC(=O)c1c(C)c2cnc(Nc3ccc(N(C)CCCCCCC(=O)NO)cn3)nc2n(C2CCCC2)c1=O
Result :: 10 to 25 nM

----------
Parameter pIC50: see the listing below.
# Assayed Target: recombinant, full-length HDAC-1 (Homo sapiens (Human), UniProt Q13547)
# Sequence (Q13547 whole entry): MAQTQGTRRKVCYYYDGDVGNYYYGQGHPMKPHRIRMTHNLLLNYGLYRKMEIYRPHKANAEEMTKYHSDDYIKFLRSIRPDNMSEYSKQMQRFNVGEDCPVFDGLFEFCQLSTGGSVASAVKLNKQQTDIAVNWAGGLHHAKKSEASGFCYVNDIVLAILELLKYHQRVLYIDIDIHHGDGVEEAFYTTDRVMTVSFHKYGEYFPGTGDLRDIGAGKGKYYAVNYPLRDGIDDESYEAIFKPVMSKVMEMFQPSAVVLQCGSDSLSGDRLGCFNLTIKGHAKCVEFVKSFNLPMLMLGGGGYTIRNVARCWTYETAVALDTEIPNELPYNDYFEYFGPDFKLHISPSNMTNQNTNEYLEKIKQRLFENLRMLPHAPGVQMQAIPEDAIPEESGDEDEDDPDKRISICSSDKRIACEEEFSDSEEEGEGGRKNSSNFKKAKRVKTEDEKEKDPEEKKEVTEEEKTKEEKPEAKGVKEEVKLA
# Test: HDAC-1 assay (fluorogenic Ac-peptide-AMC)
# Type: biochemical
# Particulars: method 1: HDAC-1 protein (BPS Biosciences)
pIC50: −log10 of the molar value.

- CC(=O)c1c(C)c2cnc(Nc3ccc(N(C)CCN(C)c4ncc(C(=O)NO)cn4)cn3)nc2n(C2CCCC2)c1=O [Compound 1]: 8.00 to 8.30

Lab note: next molecule to report on.
Query :: What does the record list as pIC50 for CC(=O)c1c(C)c2cnc(Nc3ccc(N(C)Cc4ccc(/C=C/C(=O)NO)cc4)cn3)nc2n(C2CCCC2)c1=O [Compound 2] ?
Result :: 7.30 to 8.00

----------
# Assayed Target: CDK2/CycA2 (Homo sapiens (Human))
# Test: CDK2 kinase assay (Mobility Shift Assay)
# Type: biochemical
# Particulars: method 2: CDK2/CycA2 2.5 nM, ATP Km 17 μM, 30 min, 28° C.
pIC50: −log10 of the molar value.
This listing pairs compounds with measured pIC50.

• CC(=O)c1c(C)c2cnc(Nc3ccc(OCCN(C)c4ncc(C(=O)NO)cn4)cn3)nc2n(C2CCCC2)c1=O = < 5.00
• CC(=O)c1c(C)c2cnc(Nc3ccc(N(C)CCN(C)c4ccc(C(=O)NO)cc4)cn3)nc2n(C2CCCC2)c1=O = < 5.30
• CC(=O)c1c(C)c2cnc(Nc3ccc(N(C)CCN(C)c4ccc(C(=O)NO)cn4)cn3)nc2n(C2CCCC2)c1=O = < 5.70
• CC(=O)c1c(C)c2cnc(Nc3ccc(N(C)CCN(C)c4ccc(C(=O)NO)nc4)cn3)nc2n(C2CCCC2)c1=O = < 5.30
• CC(=O)c1c(C)c2cnc(Nc3ccc(OCCN(C)c4ccc(C(=O)NO)cn4)cn3)nc2n(C2CCCC2)c1=O = < 5.70

Query :: Bench note: what pIC50 did CC(=O)c1c(C)c2cnc(Nc3ccc(N(C)CCCCCCC(=O)NO)cn3)nc2n(C2CCCC2)c1=O show?
Result :: < 5.30

Query :: What about CC(=O)c1c(C)c2cnc(Nc3ccc(N4CCC(C(=O)NO)CC4)cn3)nc2n(C2CCCC2)c1=O ?
Result :: < 5.70

----------
# Assayed Target: recombinant, full-length HDAC-1 (Homo sapiens (Human))
# Test: HDAC-1 assay (fluorogenic Ac-peptide-AMC)
# Assay type: biochemical
# Particulars: method 2: HDAC-1 (Active Motif)
pIC50: −log10 of the molar value.
Experimental Readout: pIC50

Recorded pIC50, per entry:
* CC(=O)c1c(C)c2cnc(Nc3ccc(OCCN(C)c4ccc(C(=O)NO)cn4)cn3)nc2n(C2CCCC2)c1=O | ≥ 8.30
* CC(=O)c1c(C)c2cnc(Nc3ccc(N(C)CCN(C)c4ccc(C(=O)NO)cn4)cn3)nc2n(C2CCCC2)c1=O | 7.12 to 7.30
* CC(=O)c1c(C)c2cnc(Nc3ccc(N(C)CCCCCCC(=O)NO)cn3)nc2n(C2CCCC2)c1=O | 8.00 to 8.30

Here is the next item to consider.
Query :: Give pIC50 (recombinant, full-length HDAC-1 (Homo sapiens (Human))) of the following compound: CC(=O)c1c(C)c2cnc(Nc3ccc(OCCN(C)c4ncc(C(=O)NO)cn4)cn3)nc2n(C2CCCC2)c1=O
Result :: ≥ 8.30

----------
# Assayed Target: CDK6/CycD3 (Homo sapiens (Human))
# Sequence (Q00534 whole entry, species assumed): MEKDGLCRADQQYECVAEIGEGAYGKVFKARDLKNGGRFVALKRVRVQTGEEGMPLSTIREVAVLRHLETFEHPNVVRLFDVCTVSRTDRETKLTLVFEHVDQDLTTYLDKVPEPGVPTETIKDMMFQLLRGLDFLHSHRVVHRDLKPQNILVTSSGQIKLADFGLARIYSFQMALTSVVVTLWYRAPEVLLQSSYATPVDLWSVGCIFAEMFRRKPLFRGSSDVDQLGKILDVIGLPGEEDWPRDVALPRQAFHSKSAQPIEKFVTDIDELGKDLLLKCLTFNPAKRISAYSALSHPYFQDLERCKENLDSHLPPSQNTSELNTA
# Sequence (P30281 whole entry partner, species assumed): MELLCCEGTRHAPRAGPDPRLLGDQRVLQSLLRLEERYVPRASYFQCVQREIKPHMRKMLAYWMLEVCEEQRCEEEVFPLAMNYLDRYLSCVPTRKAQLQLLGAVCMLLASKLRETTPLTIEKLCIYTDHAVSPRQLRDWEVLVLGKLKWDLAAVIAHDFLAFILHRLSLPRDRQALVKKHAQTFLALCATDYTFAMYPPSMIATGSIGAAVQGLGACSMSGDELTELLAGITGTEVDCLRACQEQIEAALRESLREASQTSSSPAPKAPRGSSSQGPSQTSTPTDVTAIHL
# Test: CDK6 kinase assay (Mobility Shift Assay)
# Format: biochemical
# Particulars: method 1: CDK6/cycD3 15 nM, ATP Km 800 μM, 60 min, 28° C.
Experimental Readout: IC50

* CC(=O)c1c(C)c2cnc(Nc3ccc(N(C)Cc4ccc(/C=C/C(=O)NO)cc4)cn3)nc2n(C2CCCC2)c1=O | 50 to 100 nM

Query :: Which value of IC50 has been reported for CC(=O)c1c(C)c2cnc(Nc3ccc(N(C)CCN(C)c4ncc(C(=O)NO)cn4)cn3)nc2n(C2CCCC2)c1=O in the records?
Result :: 25 to 50 nM
